Examples of compounds with documented pest or weed control at 20 g/ha follow.
Tested on: DIGSA
Test: Post-emergence herbicidal action against DIGSA
Assay type: in vivo, Digitaria sanguinalis
Details: Digitaria sanguinalis, 504 h, 20 g/ha
Report only the number, with the unit % understood.

Req: Which pest or weed control at 20 g/ha reading was recorded for the compound CCc1c(C(=O)Nc2nnnn2C)ccc(C(F)(F)F)c1C(=O)NC1CC1 [Example 1-273] ?
Resp: 90

Req: Which pest or weed control at 20 g/ha reading was recorded for the compound CCNC(=O)c1c(C(F)F)ccc(C(=O)Nc2nnnn2C)c1SC [Example 1-88] ?
Resp: 90

Req: Which pest or weed control at 20 g/ha reading was recorded for the compound Cn1nnnc1NC(=O)c1ccc(I)c(C(=O)NC2CC2)c1Cl [Example 1-197] ?
Resp: 100

Req: Which pest or weed control at 20 g/ha reading was recorded for the compound Cn1nnnc1NC(=O)c1ccc(C(F)(F)F)c(C(=O)NC2CC2)c1C1CC1 [Example 1-288] ?
Resp: 100

Req: Which pest or weed control at 20 g/ha reading was recorded for the compound CNC(=O)c1c(C(F)(F)C(F)(F)F)ccc(C(=O)Nc2nnnn2C)c1Cl [Example 1-165] ?
Resp: 90

Req: Which pest or weed control at 20 g/ha reading was recorded for the compound CCNC(=O)c1c(C(F)F)ccc(C(=O)Nc2nnnn2C)c1Br [Example 1-226] ?
Resp: 100

Req: Which pest or weed control at 20 g/ha reading was recorded for the compound CCNC(=O)c1c(C(F)F)ccc(C(=O)Nc2nnnn2C)c1CC [Example 1-278] ?
Resp: 90

Req: Which pest or weed control at 20 g/ha reading was recorded for the compound CNC(=O)c1c(C(F)F)ccc(C(=O)Nc2nnnn2C)c1C [Example 1-44] ?
Resp: 90

Req: Which pest or weed control at 20 g/ha reading was recorded for the compound Cn1nnnc1NC(=O)c1ccc(Cl)c(C(=O)NC2CC2)c1Cl [Example 1-173] ?
Resp: 100

Req: Which pest or weed control at 20 g/ha reading was recorded for the compound CCNC(=O)c1c(C(F)F)ccc(C(=O)Nc2nnnn2CC)c1Cl [Example 2-148] ?
Resp: 90

Req: Which pest or weed control at 20 g/ha reading was recorded for the compound CCn1nnnc1NC(=O)c1ccc(C(F)F)c(C(=O)NC2CC2)c1Cl [Example 2-149] ?
Resp: 100

Req: Which pest or weed control at 20 g/ha reading was recorded for the compound CNC(=O)c1c(C(F)F)ccc(C(=O)Nc2nnnn2C)c1Cl [Example 1-147] ?
Resp: 90

Req: Which pest or weed control at 20 g/ha reading was recorded for the compound Cn1nnnc1NC(=O)c1ccc(C(F)F)c(C(=O)NCC(F)(F)F)c1Br [Example 1-229] ?
Resp: 90

Req: Which pest or weed control at 20 g/ha reading was recorded for the compound CCNC(=O)c1c(C(F)F)ccc(C(=O)Nc2nnnn2C)c1C1CC1 [Example 1-305] ?
Resp: 80

Req: Which pest or weed control at 20 g/ha reading was recorded for the compound Cn1nnnc1NC(=O)c1ccc(C(F)F)c(C(=O)NC2CC2)c1C1CC1 [Example 1-306] ?
Resp: 90

Req: Which pest or weed control at 20 g/ha reading was recorded for the compound CCNC(=O)c1c(C(F)(F)F)ccc(C(=O)Nc2nnnn2CC)c1Br [Example 2-208] ?
Resp: 90

Req: Which pest or weed control at 20 g/ha reading was recorded for the compound CCCNC(=O)c1c(C(F)(F)F)ccc(C(=O)Nc2nnnn2CC)c1C [Example 2-32] ?
Resp: 90
